Here we list compounds with their recorded IC50 when tested on UniProt P31153.
Enter your answer as a number in nM; do not include the unit.

Solved entries (count: 3):
{"columns": ["SMILES_DATA", "VALUE_UNITS", "IC50"],
 "data": [
  ["CCOc1c(-c2ccc(OC(F)F)cc2)c(=O)n(-c2ccc3nn(CC)cc3c2)c2[nH]ncc12", "nM", 16.6],
  ["CCOc1c(-c2ccc(Cl)cn2)c(=O)n(-c2ccc3nn(C)cc3c2)c2[nH]ncc12", "nM", 18],
  ["CCSc1c(-c2ccc(Cl)cc2)c(=O)n(-c2ccc3nn(C)cc3c2)c2[nH]ncc12", "nM", 11.2]
]}

UniProt P31153 / IC50 / CCOc1c(-c2ccc(Cl)cc2)c(=O)n(-c2ccn3nc(C)cc3n2)c2[nH]ncc12 : value? 335

UniProt P31153 / IC50 / CCOc1c(-c2ccc(Cl)cc2)c(=O)n(-c2ccc3nn(C)nc3c2)c2[nH]ncc12 : value? 12.4

UniProt P31153 / IC50 / CCOc1c(-c2ccc(Cl)cc2)c(=O)n(-c2ccc3nn(C4COC4)cc3c2)c2[nH]ncc12 : value? 18.2

UniProt P31153 / IC50 / CCOc1c(-c2ccc(OC(F)F)cc2)c(=O)n(-c2ccc3nncn3c2)c2[nH]ncc12 : value? 13.5

UniProt P31153 / IC50 / CCCOc1c(-c2ccc(Cl)nc2)c(=O)n(-c2ccc3nn(C)cc3c2)c2[nH]ncc12 : value? 14.8

UniProt P31153 / IC50 / CCOc1c(-c2ccc(OC)nc2)c(=O)n(-c2ccc3nn(C)cc3c2)c2[nH]ncc12 : value? 12.6

UniProt P31153 / IC50 / CCOc1c(-c2ccc(Cl)cc2)c(=O)n(-c2ccc3nn(C)cc3c2)c2cnn(C)c12 : value? 62.4

UniProt P31153 / IC50 / CCOc1c(-c2ccc(Cl)cc2)c(=O)n(-c2ccc3c(cnn3CCN(C)C)n2)c2[nH]ncc12 : value? 376

UniProt P31153 / IC50 / CCOc1c(-c2ccc(Cl)cc2)c(=O)n(-c2ccc3ncn(CC)c3c2)c2[nH]ncc12 : value? 22.1

UniProt P31153 / IC50 / CCOc1c(-c2ccc(C)nc2)c(=O)n(-c2ccc3nn(C)cc3c2)c2[nH]ncc12 : value? 16.3

UniProt P31153 / IC50 / CCOc1c(-c2ccc(OC(F)F)cc2)c(=O)n(-c2ccc3nn(C)cc3c2)c2nn(C)cc12 : value? 10.5

----------
Here we list molecules with their recorded pIC50 when tested on MAT2A (Homo sapiens (Human), UniProt P31153).
Sequence (P31153 whole entry): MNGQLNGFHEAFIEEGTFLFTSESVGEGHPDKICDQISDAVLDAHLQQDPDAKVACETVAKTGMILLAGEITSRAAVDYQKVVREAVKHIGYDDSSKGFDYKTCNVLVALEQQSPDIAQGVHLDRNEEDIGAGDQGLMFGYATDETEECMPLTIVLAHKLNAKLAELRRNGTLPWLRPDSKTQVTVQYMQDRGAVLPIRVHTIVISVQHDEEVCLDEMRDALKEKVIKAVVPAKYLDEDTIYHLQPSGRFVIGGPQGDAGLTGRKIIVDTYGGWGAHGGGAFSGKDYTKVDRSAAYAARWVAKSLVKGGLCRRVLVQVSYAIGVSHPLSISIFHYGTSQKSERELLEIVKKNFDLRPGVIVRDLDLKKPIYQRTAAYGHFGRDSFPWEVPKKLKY
Here pIC50 is given on a logarithmic scale as minus log10 of the concentration in mol/L.

{"columns": ["MOLECULE", "pIC50"],
 "data": [
  ["Cn1cc2cc(-n3c(=O)c(-c4ccc(C5CC5)nc4)c(OCC(F)(F)F)c4cn[nH]c43)ccc2n1 [Compound 53]", 7.80],
  ["CCNc1c(-c2ccc(OC(F)F)cc2)c(=O)n(-c2ccc3nn(C)cc3n2)c2[nH]ncc12 [Compound 129]", 7.75],
  ["CCOc1c(-c2ccc(Cl)cc2)c(=O)n(-c2ccc3ncn(C4CNC4)c3c2)c2[nH]ncc12 [Compound 35]", 7.22],
  ["CCOc1c(-c2ccc(OC)cc2)c(=O)n(-c2ccc3ncn(C)c3c2)c2[nH]ncc12 [Compound 15]", 7.82],
  ["CCOc1c(-c2ccc(C(F)(F)F)nc2)c(=O)n(-c2ccc3nn(C)cc3c2)c2[nH]ncc12 [Compound 46]", 7.82]
]}

MAT2A (Homo sapiens (Human), UniProt P31153) / pIC50 / CCNc1c(-c2ccc(Cl)cc2)c(=O)n(-c2ccc3nn(C)cc3n2)c2[nH]ncc12 [Compound 105] : value? 7.71

MAT2A (Homo sapiens (Human), UniProt P31153) / pIC50 / CCN(C)c1c(-c2ccc(Cl)cc2)c(=O)n(-c2ccc3nn(C)cc3c2)c2[nH]ncc12 [Compound 64] : value? 7.73

MAT2A (Homo sapiens (Human), UniProt P31153) / pIC50 / CCOc1c(-c2ccc(OC)cc2)c(=O)n(-c2ccc3nn(C)cc3c2)c2[nH]ncc12 [Compound 3] : value? 7.71

MAT2A (Homo sapiens (Human), UniProt P31153) / pIC50 / Cn1cc2cc(-n3c(=O)c(-c4ccc(Cl)cc4)c(OCCO)c4cn[nH]c43)ccc2n1 [Compound 59] : value? 7.68

MAT2A (Homo sapiens (Human), UniProt P31153) / pIC50 / CCNc1c(-c2ccc(C(F)(F)F)nc2)c(=O)n(-c2ccc3nn(C)cc3c2)c2[nH]ncc12 [Compound 106] : value? 7.54

MAT2A (Homo sapiens (Human), UniProt P31153) / pIC50 / Cn1cc2cc(-n3c(=O)c(-c4ccc(F)cc4)c(OCC4CC4)c4cn[nH]c43)ccc2n1 [Compound 51] : value? 7.80

MAT2A (Homo sapiens (Human), UniProt P31153) / pIC50 / Cn1cnc2ccc(-n3c(=O)c(-c4ccc(Cl)cc4)c(OCC(F)(F)F)c4cn[nH]c43)cc21 [Compound 36] : value? 7.77

MAT2A (Homo sapiens (Human), UniProt P31153) / pIC50 / CCOc1c(-c2ccc(Cl)cc2)c(=O)n(-c2ccc3nn(C)nc3n2)c2nn(C)cc12 [Compound 138] : value? 7.29

MAT2A (Homo sapiens (Human), UniProt P31153) / pIC50 / Cn1cc2nc(-n3c(=O)c(-c4ccc(Cl)cc4)c(OCC4CC4)c4cn[nH]c43)ccc2n1 [Compound 96] : value? 7.75

MAT2A (Homo sapiens (Human), UniProt P31153) / pIC50 / CCNc1c(-c2ccc(OC)cc2)c(=O)n(-c2ccc(C#N)cc2)c2[nH]ncc12 [Compound 6] : value? 6.15

MAT2A (Homo sapiens (Human), UniProt P31153) / pIC50 / CCOc1c(-c2ccc(C)cc2)c(=O)n(-c2ccc3nn(C)cc3c2)c2[nH]ncc12 [Compound 117] : value? 7.76

MAT2A (Homo sapiens (Human), UniProt P31153) / pIC50 / Cn1cc2cc(-n3c(=O)c(-c4ccc(Cl)cc4)c(NCC4CC4)c4cn[nH]c43)ccc2n1 [Compound 123] : value? 7.93
